target: T1, basiliximab fab; experiment: BLI; CD25-Fc on anti-hFc biosensor, basiliximab Fab in solution; global 1:1 fit;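 further: biolayer interferometry signals normalized against a reference probe and smoothed with a Savitzky-Golay filter before the global fit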
T1 construct: The assay used a Fab of basiliximab; Chimeric antibody: human IgG1 constant, mouse variable domains
T1 sequence (VH, as listed by the source limits assumed, chain 1 of 2): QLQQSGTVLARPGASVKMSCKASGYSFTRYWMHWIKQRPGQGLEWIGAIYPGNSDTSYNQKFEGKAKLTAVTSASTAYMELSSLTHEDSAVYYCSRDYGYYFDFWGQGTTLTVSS
T1 sequence (VL, as listed by the source limits assumed, chain 2 of 2): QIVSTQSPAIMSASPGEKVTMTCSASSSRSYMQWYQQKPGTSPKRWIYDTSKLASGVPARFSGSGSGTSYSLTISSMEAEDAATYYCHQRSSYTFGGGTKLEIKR
Consider the following binders and their measured koff readings.
Write it as a number; the unit s⁻¹ goes unstated.

Some entries whose results are on file:
INSERT INTO assay_data (binder, endpoint_result) VALUES
  ('CD25 T47S mutant (CD25-Fc) (Fc fusion, not shown: Fc part of CD25-Fc) ELCDDDPPEIPHATFKAMAYKEGTMLNCECKRGFRRIKSGSLYMLCSGNSSHSSWDNQCQCTSSATRNTTKQVTPQPEEQKERKTTEMQSPMQPVDQASLPGHCREPPPWENEATERIYHFVVGQMVYYQCVQGYRALHRGPAESVCKMTHGKTRWTQPQLICTGEMETSQFPGEEKPQASPEGRPESETSCLVTTTDFQIQTEMAATMETSIFTTEYQ', 0.00588),
  ('CD25 L42V mutant (CD25-Fc) (Fc fusion, not shown: Fc part of CD25-Fc) ELCDDDPPEIPHATFKAMAYKEGTMLNCECKRGFRRIKSGSVYMLCTGNSSHSSWDNQCQCTSSATRNTTKQVTPQPEEQKERKTTEMQSPMQPVDQASLPGHCREPPPWENEATERIYHFVVGQMVYYQCVQGYRALHRGPAESVCKMTHGKTRWTQPQLICTGEMETSQFPGEEKPQASPEGRPESETSCLVTTTDFQIQTEMAATMETSIFTTEYQ', 0.000748);

Continue with the binder presented below.
Lookup: Looking for the measured koff of CD25 L42Y mutant (CD25-Fc) (Fc fusion, not shown: Fc part of CD25-Fc) ELCDDDPPEIPHATFKAMAYKEGTMLNCECKRGFRRIKSGSYYMLCTGNSSHSSWDNQCQCTSSATRNTTKQVTPQPEEQKERKTTEMQSPMQPVDQASLPGHCREPPPWENEATERIYHFVVGQMVYYQCVQGYRALHRGPAESVCKMTHGKTRWTQPQLICTGEMETSQFPGEEKPQASPEGRPESETSCLVTTTDFQIQTEMAATMETSIFTTEYQ , can you help?
Found: 0.000325
